Test: Kinetic assay of purified DAOCS with penicillin G (standard penicillin G assay, HPLC of cephalosporin G)
Assay type: biochemical
Conditions: for penicillin G; 20 μg purified DAOCS, 1 mM α-ketoglutarate, 30° C.; triplicate, Hanes-Woolf Plot
Here the recorded log10 of Km is given for each entry.
Could you please treat all values as log10 of Km in µM?

Examples with their reported log10 of Km follow.
Entry under review: SC59: DNA-shuffled combined DAOCS mutant with C155Y, Y184H, V275I and C281Y (protein, UniProt P18548 1-311, looked up, variant C155Y Y184H V275I C281Y) Deacetoxycephalosporin C …: MDTTVPTFSLAELQQGLHQDEFRRCLRDKGLFYLTDCGLTDTELKSAKDLVIDFFEHGSEAEKRAVTSPVPTMRRGFTGLESESTAQITNTGSYSDYSMCYSMGTADNLFPSGDFERIWTQYFDRQYTASRAVAREVLRATGTEPDGGVEAFLDYEPLLRFRYFPQVPEHRSAEEQPLRMAPHHDLSMVTLIQQTPCANGFVSLQAEVGGAFTDLPYRPDAVLVFCGAIATLVTGGQVKAPRHHVAAPRRDQIAGSSRTSSVFFLRPNADFTFSIPLAREYGFDVSLDGETATFQDWIGGNYVNIRRTSKA . Reported log10 of Km?
2.28

Item: YS53: mutated penicillin expandase (DAOCS) with substitution C281Y (protein, UniProt P18548 1-311, looked up, variant C281Y) Deacetoxycephalosporin C …: MDTTVPTFSLAELQQGLHQDEFRRCLRDKGLFYLTDCGLTDTELKSAKDLVIDFFEHGSEAEKRAVTSPVPTMRRGFTGLESESTAQITNTGSYSDYSMCYSMGTADNLFPSGDFERIWTQYFDRQYTASRAVAREVLRATGTEPDGGVEAFLDCEPLLRFRYFPQVPEHRSAEEQPLRMAPHYDLSMVTLIQQTPCANGFVSLQAEVGGAFTDLPYRPDAVLVFCGAIATLVTGGQVKAPRHHVAAPRRDQIAGSSRTSSVFFLRPNADFTFSVPLAREYGFDVSLDGETATFQDWIGGNYVNIRRTSKA
2.83

Item: EC12: mutated penicillin expandase (DAOCS) with substitution L277Q (protein, UniProt P18548 1-311, looked up, variant L277Q) Deacetoxycephalosporin C …: MDTTVPTFSLAELQQGLHQDEFRRCLRDKGLFYLTDCGLTDTELKSAKDLVIDFFEHGSEAEKRAVTSPVPTMRRGFTGLESESTAQITNTGSYSDYSMCYSMGTADNLFPSGDFERIWTQYFDRQYTASRAVAREVLRATGTEPDGGVEAFLDCEPLLRFRYFPQVPEHRSAEEQPLRMAPHYDLSMVTLIQQTPCANGFVSLQAEVGGAFTDLPYRPDAVLVFCGAIATLVTGGQVKAPRHHVAAPRRDQIAGSSRTSSVFFLRPNADFTFSVPQARECGFDVSLDGETATFQDWIGGNYVNIRRTSKA
3.01

Item: YS123: mutated penicillin expandase (DAOCS) with substitution H244Q (protein, UniProt P18548 1-311, looked up, variant H244Q) Deacetoxycephalosporin C …: MDTTVPTFSLAELQQGLHQDEFRRCLRDKGLFYLTDCGLTDTELKSAKDLVIDFFEHGSEAEKRAVTSPVPTMRRGFTGLESESTAQITNTGSYSDYSMCYSMGTADNLFPSGDFERIWTQYFDRQYTASRAVAREVLRATGTEPDGGVEAFLDCEPLLRFRYFPQVPEHRSAEEQPLRMAPHYDLSMVTLIQQTPCANGFVSLQAEVGGAFTDLPYRPDAVLVFCGAIATLVTGGQVKAPRHQVAAPRRDQIAGSSRTSSVFFLRPNADFTFSVPLARECGFDVSLDGETATFQDWIGGNYVNIRRTSKA
3.14

Item: YS69: mutated penicillin expandase (DAOCS) with substitution M188I (protein, UniProt P18548 1-311, looked up, variant M188I) Deacetoxycephalosporin C …: MDTTVPTFSLAELQQGLHQDEFRRCLRDKGLFYLTDCGLTDTELKSAKDLVIDFFEHGSEAEKRAVTSPVPTMRRGFTGLESESTAQITNTGSYSDYSMCYSMGTADNLFPSGDFERIWTQYFDRQYTASRAVAREVLRATGTEPDGGVEAFLDCEPLLRFRYFPQVPEHRSAEEQPLRMAPHYDLSIVTLIQQTPCANGFVSLQAEVGGAFTDLPYRPDAVLVFCGAIATLVTGGQVKAPRHHVAAPRRDQIAGSSRTSSVFFLRPNADFTFSVPLARECGFDVSLDGETATFQDWIGGNYVNIRRTSKA
3.29

Others:
Entry under review: YS125: mutated DAOCS with substitution N304L as disclosed in Chin H. S. et al (protein, UniProt P18548 1-311, looked up, variant N304L) Deacetoxycephalosporin C …: MDTTVPTFSLAELQQGLHQDEFRRCLRDKGLFYLTDCGLTDTELKSAKDLVIDFFEHGSEAEKRAVTSPVPTMRRGFTGLESESTAQITNTGSYSDYSMCYSMGTADNLFPSGDFERIWTQYFDRQYTASRAVAREVLRATGTEPDGGVEAFLDCEPLLRFRYFPQVPEHRSAEEQPLRMAPHYDLSMVTLIQQTPCANGFVSLQAEVGGAFTDLPYRPDAVLVFCGAIATLVTGGQVKAPRHHVAAPRRDQIAGSSRTSSVFFLRPNADFTFSVPLARECGFDVSLDGETATFQDWIGGNYVLIRRTSKA . Reported log10 of Km?
2.74

Item: YS59: mutated penicillin expandase (DAOCS) with substitution G79E (protein, UniProt P18548 1-311, looked up, variant G79E) Deacetoxycephalosporin C …: MDTTVPTFSLAELQQGLHQDEFRRCLRDKGLFYLTDCGLTDTELKSAKDLVIDFFEHGSEAEKRAVTSPVPTMRRGFTELESESTAQITNTGSYSDYSMCYSMGTADNLFPSGDFERIWTQYFDRQYTASRAVAREVLRATGTEPDGGVEAFLDCEPLLRFRYFPQVPEHRSAEEQPLRMAPHYDLSMVTLIQQTPCANGFVSLQAEVGGAFTDLPYRPDAVLVFCGAIATLVTGGQVKAPRHHVAAPRRDQIAGSSRTSSVFFLRPNADFTFSVPLARECGFDVSLDGETATFQDWIGGNYVNIRRTSKA
2.88

Hello, the source for this data is patent US6905854B2, in case you need it.
